# Target or test system: Fuc(a1-2)Gal(b1-3)GlcNAc
# Protocol notes: glycan array binding signal (z-score within array); higher = stronger binding
# Measurement context: glycan notation: IUPAC condensed, linker removed
This excerpt belongs to a sample that is enriched for the strongest signals.
Assign satisfied whenever glycan array binding signal (z-score) does not fall below -0.3; assign not satisfied whenever it does.

# count of solved cases: 3
PP2A1 (Arabidopsis thaliana) (protein) MFRNQDSKYLIPVQKEAPPVTTLPMKASTVKSPHNCEAILRDADPPISLSSVNLSEQLRSGVFLKPKKQIKYWVDERNSNCFMLFAKNLSITWSDDVNYWTWFTEKESPNENVEAVGLKNVCWLDITGKFDTRNLTPGIVYEVVFKVKLEDPAYGWDTPVNLKLVLPNGKEKPQEKKVSLRELPRYKWVDVRVGEFVPEKSAAGEITFSMYEHAAGVWKKGLSLKGVAIRPKQHHHHHH | not satisfied
rCnSL-proA (Clitocybe nebularis) (protein) AAFFSLVVLLALLPFGIHASALPSTELTPRVNPNLPGPNDVFVGFRGTNNIVGAIYEKDGIKDTPLNNGADAEMGPGSYITDGLFTARIFASGSAGNNPGTTATVCKIYASGVQWRGAPKGYIPVAYFGNGPTAEQRRQTYLRTLGLPGTAIRFGNLNTNPGQGPTAPRQMVVPPGPLRSLLKASCFPAADTRLPQTLHYFEKRVDWNIITAADSQTWGH | not satisfied
Glycodelin A (Homo sapiens), P09466 (protein) MLCLLLTLGVALVCGVPAMDIPQTKQDLELPKLAGTWHSMAMATNNISLMATLKAPLRVHITSLLPTPEDNLEIVLHRWENNSCVEKKVLGEKTENPKKFKINYTVANEATLLDTDYDNFLFLCLQDTTTPIQSMMCQYLARVLVEDDEIMQGFIRAFRPLPRHLWYLLDLKQMEEPCRF | not satisfied

Incoming: In plain terms: is recorded glycan array binding signal (z-score) at least -0.3 for LKPARMA (Neurospora crassa) (protein) MSFHVTAEDARRIEVRDNRTILFARLRREDGEWNDASYELDQIIGNNDGHFQWGGGQNFTETAEDIRFHPKEGAAEQPILRARLRDCNGEFHDRDVNLTEIVENVNGEFQAKF ?
Outgoing: satisfied

Incoming: In plain terms: is recorded glycan array binding signal (z-score) at least -0.3 for Gal 8 (Mus musculus), Q9JL15 (protein) MGGSHHHHHHGMASMLSLNNLQNIIYNPIIPYVGTITEQLKPGSLIVIRGHVPKDSERFQVDFQLGNSLKPRADVAFHFNPRFKRSSCIVCNTLTQEKWGWEEITYDMPFRKEKSFEIVFMVLKNKFQVAVNGRHVLLYAHRISPEQIDTVGIYGKVNIHSIGFRFSSASALPHTLGDLQSMETSALGLTQINRENIQKPGKLQLSLPFEARLNASMGPGRTVVIKGEVNTNARSFNVDLVAGKTRDIALHLNPRLNVKAFVRNSFLQDAWGEEERNITCFPFSSGMYFEMIIYCDVREFKVAINGVHSLEYKHRFKDLSSIDTLSVDGDIRLLDVRSW ?
Outgoing: satisfied
